These entries and their values trace back to BindingDB's records for patent US12202835.

Tested System: High affinity nerve growth factor receptor (Homo sapiens)
Sequence (P04629 whole entry): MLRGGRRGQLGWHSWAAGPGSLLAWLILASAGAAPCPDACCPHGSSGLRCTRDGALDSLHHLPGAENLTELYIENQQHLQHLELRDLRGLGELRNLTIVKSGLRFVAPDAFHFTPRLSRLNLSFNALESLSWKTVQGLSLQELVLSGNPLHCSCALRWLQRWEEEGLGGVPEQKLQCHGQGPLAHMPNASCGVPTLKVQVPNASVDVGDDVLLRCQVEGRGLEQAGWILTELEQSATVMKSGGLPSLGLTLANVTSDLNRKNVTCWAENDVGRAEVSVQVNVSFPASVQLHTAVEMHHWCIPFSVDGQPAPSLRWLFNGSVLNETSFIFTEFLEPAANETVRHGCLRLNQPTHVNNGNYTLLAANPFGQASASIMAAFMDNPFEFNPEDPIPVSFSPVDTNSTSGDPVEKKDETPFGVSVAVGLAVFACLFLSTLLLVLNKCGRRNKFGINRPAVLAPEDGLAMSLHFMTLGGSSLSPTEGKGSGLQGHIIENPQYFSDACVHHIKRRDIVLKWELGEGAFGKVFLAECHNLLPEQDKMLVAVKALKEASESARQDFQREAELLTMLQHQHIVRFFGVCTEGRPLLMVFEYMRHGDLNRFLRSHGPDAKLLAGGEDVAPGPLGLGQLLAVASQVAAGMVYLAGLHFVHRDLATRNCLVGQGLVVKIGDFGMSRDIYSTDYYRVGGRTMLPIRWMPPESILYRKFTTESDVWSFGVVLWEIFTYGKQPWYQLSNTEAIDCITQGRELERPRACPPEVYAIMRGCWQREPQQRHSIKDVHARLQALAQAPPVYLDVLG
Readout: IC50

Some molecules with recorded IC50:
CCOc1ccn(-c2ccc(F)cc2)c(=O)c1C(=O)Nc1ccc(Oc2ccnc3cc(OCCCN(C)C)c4c(c23)OCCO4)c(F)c1
< 50 nM
CCOc1ccn(-c2ccc(F)cc2)c(=O)c1C(=O)Nc1ccc(Oc2ccnc3cc(OCCCCCCN(C)C)c4c(c23)OCCO4)c(F)c1
< 50 nM

Alright, here's another molecule for you.
Item under review: CN(C)CCCOc1cc2nccc(Oc3ccc(NC(=O)c4cn(C)c(=O)n(-c5ccc(F)cc5)c4=O)cc3F)c2c2c1OCCO2 . Reported IC50?
< 50 nM
